Every entry's value here was drawn from the supplement of paper PMC9170038.

apparent KD of MS2 coat protein values, listed per item
# System: MS2 coat protein
# experiment: apparent KD of MS2 coat protein; higher = weaker reporter binding
# protocol-conditions: Eterna round: R107; input ligand: theophylline 20 uM

{"sequence-input": "AAACCAAGGGAUGGGUGCCUUGGUAGUGAUACCAGCCUGGAAACAGGCCCUUGGCAGCACAUGAGGAUCACCCAUGUGAAAUAAU [TheoAX 18#OpenEnded]", "result-units": "µM", "apparent KD of MS2 coat protein": 0.0896}
{"sequence-input": "GUAUGGAAACAUACUAUGGUAUCGUGAGAUACCAGUACAGAAAUGUACCCUUGGCAGCUCGCGCAUACAUGAGGAUCACCCAUGU [Ex Theophylline A 10]", "result-units": "µM", "apparent KD of MS2 coat protein": 0.025}
{"sequence-input": "GCGAUGGAGCGAAGGAGCGGCUAAAUGUAACACAUGAGGAUCACCCAUGUUCCAAGAUGUGGCCAGGUAGGUCGCGCUCCAUCGC [SSAB NP+V+V2 #15]", "result-units": "µM", "apparent KD of MS2 coat protein": 0.229}
{"sequence-input": "CCGACGAUGACUAUGGGUCAGGAGUGCGUACGAGGACCGGUACGGCCGCCACUCGAGGAGUGGGACAUGAGGAUCACCCAUGUGG [#19 Exclusion Tryptophan A]", "result-units": "µM", "apparent KD of MS2 coat protein": 0.0498}
{"sequence-input": "UGGGUAGCAUAGAUUGAUAGCUACACUGAAGGAGCGAGGAUAACCUCAGGUAGGUCGCAGACAUGAGGAUCACCCAUGUAGAUGG [Same State Arginine A GF17]", "result-units": "µM", "apparent KD of MS2 coat protein": 0.174}
{"sequence-input": "GCUGCUUUGGGAAGGAGCGCUGCGUUAUCAUGUUGGACAUGAGGAUCACCCAUGUAAAUGUAGCAGGUAGGUCGCUUAGGGCAGC [EAP NP+V+V2 #15]", "result-units": "µM", "apparent KD of MS2 coat protein": 0.046}
{"sequence-input": "UGUAUGUGAUCUGAUACCAGCUUAAUAACAUGAGCAUCAGCCAUGUGGAGCGGAAACGCUAGCCCUUGGCAGCAGAUCGCAUACU [Denovo 11 #StaticStem #AlternativeMS2]", "result-units": "µM", "apparent KD of MS2 coat protein": 0.079}
{"sequence-input": "CUGUGUCCUUCGGCCGCCACUACAUGAGGAUCACCCAUGUCGUUACGGCUCCCAAUGACGCUUUGUAGGACCGGGAAGGAGUAUG [Tienancebe]", "result-units": "µM", "apparent KD of MS2 coat protein": 0.0159}
{"sequence-input": "AACAACUAGUCGGCCGCCACUCAUAAUACAUGAGGAUCACCCAUGUAUACUUGGUUUUUAUAUUUGAGGACCGGGACAGUUGCAU [JR_Nu_ExcTryptoB_Sub026]", "result-units": "µM", "apparent KD of MS2 coat protein": 0.0147}
{"sequence-input": "UAAUGCAGGUCGGCCGCCACUACAACAUGAGGAUCACCCAUGUACAUGUUGUAGUACGGUAUGAGUAGGACCGGGACCUGCAUAA [Trp-Ms2-M'-T'-(MT)'_Design1]", "result-units": "µM", "apparent KD of MS2 coat protein": 0.154}
{"sequence-input": "UGACAUUGCUCAGAUACCAGACAUGAGGAUCACCCAUGUACCAAGGUACGAAAAUAACAUGUCCCUUGGCAGCUGAGCAAUGUCU [First try 2 #MS2Left #Theo2]", "result-units": "µM", "apparent KD of MS2 coat protein": 0.0276}
{"sequence-input": "UAUGCACAUGAGGAUCACCCAUGUAUGGAAGGAGCGGUGAAUAAACCAGGUAGGUCGCCAUUGUGAGGGUCAUCUAUGUAAUCGU [Exclusion - Arginine A (Freestyle 4)]", "result-units": "µM", "apparent KD of MS2 coat protein": 0.125}
{"sequence-input": "CAUUAAUUACGAAGGAGCGUCGAGAAUGGGUAAACAUGAGGAUCACCCAUGUGAAGGGAACGGCAGGUAGGUCGCGUAAUUAAUG [#22 Same State - Arginine B]", "result-units": "µM", "apparent KD of MS2 coat protein": 0.116}
{"sequence-input": "ACGGAUCGGAAACGAUCCGCGGCGAGGGUGCGAGGACCGGUACGGCCGCCACUCGGCUAACAUGAGGAUCACCCAUGUCCGAAGA [ETA NuPACK+Vienna+Vienna2 #9]", "result-units": "µM", "apparent KD of MS2 coat protein": 0.137}
{"sequence-input": "AAUCGGGAUGGUCAAGGGUAUGCUAUAGAUACCAGUGCAGAGAAACACCCUUGGCAGCUGUGGAACAUGAGGAUCACCCAUGUAG [Theo A Ex t4]", "result-units": "µM", "apparent KD of MS2 coat protein": 0.0227}
{"sequence-input": "ACAUUUAACUGAAGGAGCGUGAUAAACAUGAGGAUCACCCAUGUACCACAGAUUCUUAGAUCACAGGUAGGUCGCAGACUAAUGA [JR_ExcArginiB_Sub013]", "result-units": "µM", "apparent KD of MS2 coat protein": 0.0137}
{"sequence-input": "AGACAUGAGGAUCACCCAUGUAGUAUGGAUACCAGAUCCAGAUUUAUCCCUUGGCAGCUGUGGUACAGUGAUGGAUUGCUCCUAG [Exclusion - Theophylline A (Freestyle 9)]", "result-units": "µM", "apparent KD of MS2 coat protein": 0.052}
{"sequence-input": "UUCUACAUGAGGAUCACCCAUGUGGGUGAUACCAGCACUUUUUGGUGCCCUUGGCAGCACAUGAGAAUACCGUACGAUCGGCGAU [Arainbi]", "result-units": "µM", "apparent KD of MS2 coat protein": 0.5}
{"sequence-input": "UAUAUAUACUCGGCCGCCACUGAGAGAGUCAUGUAAACAUGAGGAUCACCCAUGUAAUAUAUAUACAGGACCGGGAGUAUAUUAA [4.A]", "result-units": "µM", "apparent KD of MS2 coat protein": 0.0173}

----------
# Tested on: K4 kissing-loop RNA reporter
# experiment: apparent KD of K4 kissing-loop reporter; higher = weaker reporter binding
# protocol-conditions: Eterna round: R107; input ligand: theophylline 20 uM

{"sequence-input": "UGACUGGACUGAAGGAGCGCGCGAGACAAAGUCUCGAACUCGUAGUGAUGUUAGGAAAUAACGCAGGUAGGUCGCAGUCUAGUCU", "apparent KD of K4 kissing-loop reporter / nM": 796}
{"sequence-input": "GACAUCUAUCGCCGAUAGUGUUUAUCUUGGGAGGAUAUGUCAGCGGACAGAAGGCCCAGUGAUGUUGGGUAGAUGACCGUUGCUU [Edbiza]", "apparent KD of K4 kissing-loop reporter / nM": 127}
{"sequence-input": "GGUGCUGUCUGUGCCGCCCUCCUCGUCCCUCGAGGACCGGUACGGCCGCCACUCGAGUGAUGUUCGGGUAGCGAUCCCUGCUAGC [Bdazzled - #18 Exc. Tryptophan A]", "apparent KD of K4 kissing-loop reporter / nM": 229}
{"sequence-input": "GCAGUGAUGUUGCGCAGGUACAGUGGAGUGCGAGGACCGGUACGGCCGCCACUCGUACAGAACUAGCUAAUGUAUGGAUAGGUGA [#11 K4 Tryptophan A Same State]", "apparent KD of K4 kissing-loop reporter / nM": 470}
{"sequence-input": "AAGAGCUAGGCGGCCGCCACUAGUUGUGAACACAUACAAGCCAGUGAUGUUGGUAUGGUGGACGGUAGGACCGGGCCUAGCUGAA [Exclusion - Tryptophan B (Freestyle 16)]", "apparent KD of K4 kissing-loop reporter / nM": 259}
{"sequence-input": "AAGUCAUAGGCAGGAUAUGCAUUGUAGUAAGGCAAUAUAUACGUAUAGAGUGAUGUUUUGUACCAGGCAGAAGGGCUACAUCAGU [FMN B Excl V11 (+G)]", "apparent KD of K4 kissing-loop reporter / nM": 868}
{"sequence-input": "CAUACGCAUGGAGGAUAUGAGAUUUCUCAUAUUAUUUAAUAUUCUCAGUGAUGUUGAGAAUUUAACUCAGAAGGCCAUGUGUAUG [Ex FMN B 5]", "apparent KD of K4 kissing-loop reporter / nM": 154}

----------
# System: K4 kissing-loop RNA reporter;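 also: bound reporter read as fluorescence of individual clusters on recovered sequencing chips by microscopy, with normalized cluster intensities fitted with a binding model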
# experiment: apparent KD of K4 kissing-loop reporter; higher = weaker reporter binding
# protocol-conditions: Eterna round: R107; input ligand: arginine 13.2 mM
apparent KD of K4 kissing-loop reporter values, listed per item

{"sequence-input": "AAGUCACAGGCAGGAUAUGCUUAGUAAUAAGGCCAUAUAUACGUAUAGAGUGAUGUUUUGUACCAGGCAGAAGGGCUACAUCCGU [FMN B Excl V3 (+2GCs)]", "apparent KD of K4 kissing-loop reporter, nM": 503}
{"sequence-input": "GUGUAGAAGUGAGGAUAUCGAUUUAAGAAUAAGCAGUGAUGUUGCAAGCAGGAGGAAUAAGAUUAACGAGAAGGCGUGGAUAUAG [FMN B Exclusion; Euphoria Solution]", "apparent KD of K4 kissing-loop reporter, nM": 110}
{"sequence-input": "GAUCUAUGUCCCGAUACCAGCUCAGAAGCUAGGGAGUGAUGUUCUCGGAGGUUAUCACUGAGCCCUUGGCAGCGGAACGUGACGA [theeternabot_sameState_KL_Theo_B_26]", "apparent KD of K4 kissing-loop reporter, nM": 182}
{"sequence-input": "GCACUUCUCAGUGAUGUUGAGUAAUCGGAAGGAGCGCGUGAAAACGCAGGUAGGUCGCCGAUACAUGAAGUAUCUUCGUGUGUGC [Arginine A K4 25]", "apparent KD of K4 kissing-loop reporter, nM": 235}
